Catalogue of relative viability values
test system: NCI-H2023; experiment: relative viability (nuclei count vs DMSO), 5 days (fraction); higher = more cells survive; conditions: first compound 0.253 µM
QUANTITY NAME: relative viability

- MOLECULE: "Nc1cccc2c1CN(C1CCC(=O)NC1=O)C2=O (stereo unspecified) [Lenalidomide] + Nc1nc2[nH]cc(CCc3ccc(C(=O)N[C@@H](CCC(=O)O)C(=O)O)cc3)c2c(=O)[nH]1 [Pemetrexed] (partner 0.2 µM)"
  RESULT NUMBER: 0.259
- MOLECULE: "Nc1cccc2c1CN(C1CCC(=O)NC1=O)C2=O (stereo unspecified) [Lenalidomide] + CS(=O)(=O)CCNCc1ccc(-c2ccc3ncnc(Nc4ccc(OCc5cccc(F)c5)c(Cl)c4)c3c2)o1 [Lapatinib] (partner 2 µM)"
  RESULT NUMBER: 0.74
- MOLECULE: "Nc1cccc2c1CN(C1CCC(=O)NC1=O)C2=O (stereo unspecified) [Lenalidomide] + CC(=O)Nc1cccc(-n2c(=O)n(C3CC3)c(=O)c3c(Nc4ccc(I)cc4F)n(C)c(=O)c(C)c32)c1 [Trametinib] (partner 0.02 µM)"
  RESULT NUMBER: 0.554
- MOLECULE: "Nc1cccc2c1CN(C1CCC(=O)NC1=O)C2=O (stereo unspecified) [Lenalidomide] + Cc1nc(Nc2ncc(C(=O)Nc3c(C)cccc3Cl)s2)cc(N2CCN(CCO)CC2)n1 [Dasatinib] (partner 0.075 µM)"
  RESULT NUMBER: 0.612
- MOLECULE: "Nc1cccc2c1CN(C1CCC(=O)NC1=O)C2=O (stereo unspecified) [Lenalidomide] + CC(=O)c1c(C)c2cnc(Nc3ccc(N4CCNCC4)cn3)nc2n(C2CCCC2)c1=O [Palbociclib] (partner 0.5 µM)"
  RESULT NUMBER: 0.405
- MOLECULE: "Nc1cccc2c1CN(C1CCC(=O)NC1=O)C2=O (stereo unspecified) [Lenalidomide] + CC(C)C[C@H](NC(=O)[C@H](Cc1ccccc1)NC(=O)c1cnccn1)B(O)O [Bortezomib] (partner 0.002 µM)"
  RESULT NUMBER: 0.954

The measurements presented in this section are drawn from the supplement of paper PMC10307832.
